biological target: RPS6KA6 KD1 KD2 (human); assay: radiometric filter-binding kinase assay, Kinase HotSpot; settings: compound 0.5 µM; ATP 10 µM
Measured quantity: residual activity (%)
Please give a number only; it is taken to be in %.

For `CC(C)[C@H](CO)Nc1nc(Nc2cccc(Cl)c2)c2ncn(C(C)C)c2n1` , what is its reported residual activity? 96.8

For `Cc1cc2ncc(-c3ccccc3)nc2cc1C` , what is its reported residual activity? 98.2

For `O=C1Cc2c([nH]c3ccc([N+](=O)[O-])cc23)-c2ccccc2N1` , what is its reported residual activity? 38

For `CC(C)n1cnc2c(Nc3cccc(Cl)c3)nc(NCCO)nc21` , what is its reported residual activity? 74.8

For `O=C(Nc1ccc(Cl)cc1)c1ccccc1NCc1ccncc1` , what is its reported residual activity? 104

For `CC(C)(C)c1nc2c3ccc(F)cc3c3c(=O)[nH]ccc3c2[nH]1` , what is its reported residual activity? 33.9

For `O=c1cc(-c2cccc3c2Sc2ccccc2S3)oc(N2CCOCC2)c1` , what is its reported residual activity? 98.2

For `COc1cc2ncnc(Nc3ccc(F)c(Cl)c3)c2cc1OCCCN1CCOCC1` , what is its reported residual activity? 95.2

For `O=C1Nc2cc(Br)ccc2/C1=C1/Nc2ccccc2/C1=N\O` , what is its reported residual activity? 43.1

For `COc1cc2nccc(Oc3ccc(NC(=S)NC(=O)c4ccccc4C)cc3)c2cc1OC` , what is its reported residual activity? 93

For `Nc1nc(Nc2ccc(S(N)(=O)=O)cc2)nn1C(=O)c1c(F)cccc1F` , what is its reported residual activity? 24.7
